- Test system: NCI-H358 cells
- protocol_details: Growth inhibition of KRAS-G12C mutant cell line NCI-H358 (CellTiter-Glo 2.0)
- Type: cell-based
- conditions_used: Homo sapiens, 72 h; NCI-H358, 3-day culture with compound
measured_parameter: IC50 (nM)

Solved entries:
C=CC(=O)N1CC(NC(=O)c2c(C)nc(CNc3cc(C(C)(C)C)c(C)cc3O)n2C)C1 [Example 76] = 399
C=CC(=O)N1CC(NC(=O)c2c(C)nc(CNc3cc(C(C)(C)C)c(C)cc3O)n2C(C)C)C1 [Example 78] = 993
C=CC(=O)N1CC(N(CC)C(=O)c2ccc(CNc3cc(C(C)(C)C)c(Cl)cc3O)o2)C1 [Example 5] = 699
C=CC(=O)N1CC(NC(=O)c2c(C)nc(Cc3cc(C(C)(C)C)c(Cl)cc3O)n2C)C1 [Example 92] = 1100
C=CC(=O)N1CC(NC(=O)c2cnc(CNc3cc(C(C)(C)C)c(Cl)cc3O)n2CCN(C)C)C1 [Example 38] = 708

A. C=CC(=O)N1CC(NC(=O)c2cnc(CNc3cc(C(C)(C)C)c(Cl)cc3O)n2CCOC)C1 [Example 37]
B. C=CC(=O)N1CC(NC(=O)c2c(C)nn(Cc3cc(C(C)(C)C)c(Cl)cc3O)c2C)C1 [Example 96]
C. C=CC(=O)N1CC(NC(=O)c2ccc(CNc3cc(C(C)(C)C)c(Cl)cc3O)o2)C1 [Example 1]
Exam item: Rank by IC50 (largest to smallest). Your task in answering is to list the labels in the requested order.
Marked response: C, B, A
(C: 4110 nM, B: 1360 nM, A: 321 nM)

From: patent US12479834B2
